Settings: 316.16 K; 101.33 kPa; Liquid; Pulse-echo method
measure_name: speed of sound (m/s)
Write the value in m/s as a bare number.

CCCC(=O)[O-].C[NH2+]CCO [N-methyl-2-hydroxyethylammonium butanoate] | 1558.2
CCCCC(=O)[O-].C[NH2+]CCO [2-hydroxy-N-methylethanaminium pentanoate] | 1493
CCC(=O)[O-].C[NH2+]CCO [2-hydroxy-N-methylethanaminium propionate] | 1636.8

Requested field: speed of sound. Item: C[NH2+]CCO.O=C[O-] [2-hydroxy-N-methylethanaminium formate]
1780.2

Requested field: speed of sound. Item: CC(C)C(=O)[O-].C[NH2+]CCO [2-hydroxy-N-methylethanaminium isobutyrate]
1560.5

Sourced from the NIST ThermoML archive (doi:10.1021/je900550v)
